These data points were gathered from paper PMC12652692.

tested on: DU-145; test: NCI60 one-dose screen; assay type: cell-based; conditions: Homo sapiens; DU-145, 10 μM; read-out: Growth percent
# label = class 1 if activity at 10 µM < -90% else class 0

Ask | Hi there! Is activity at 10 µM for `O=c1cc(-c2ccccc2)oc2cc(OCCCC[P+](c3ccccc3)(c3ccccc3)c3ccccn3)cc(O)c12` below -90%, do you know?
Reply | class 1

Ask | Hi there! Is activity at 10 µM for O=c1cc(-c2ccccc2)oc2cc(O)cc(O)c12 [compound 2, 5,7-dihydroxyflavone, reference compound] below -90%, do you know?
Reply | class 0

Ask | Hi there! Is activity at 10 µM for `COc1c(C)cc([P+](CCCCOc2cc(O)c3c(=O)cc(-c4ccccc4)oc3c2)(c2cc(C)c(OC)c(C)c2)c2cc(C)c(OC)c(C)c2)cc1C` below -90%, do you know?
Reply | class 1

Ask | Hi there! Is activity at 10 µM for `O=c1cc(-c2ccccc2)oc2cc(OCCCC[P+](c3ccccc3)(c3ccccc3)c3ccccc3)cc(O)c12` below -90%, do you know?
Reply | class 1

Ask | Hi there! Is activity at 10 µM for `Cc1ccccc1[P+](CCCCOc1cc(O)c2c(=O)cc(-c3ccccc3)oc2c1)(c1ccccc1C)c1ccccc1C` below -90%, do you know?
Reply | class 1

Ask | Hi there! Is activity at 10 µM for `O=c1cc(-c2ccccc2)oc2cc(OCCCC[P+](c3ccc(F)cc3)(c3ccc(F)cc3)c3ccc(F)cc3)cc(O)c12` below -90%, do you know?
Reply | class 0

Ask | Hi there! Is activity at 10 µM for `O=c1cc(-c2ccccc2)oc2cc(OCCCC[P+](C3CCCCC3)(C3CCCCC3)C3CCCCC3)cc(O)c12` below -90%, do you know?
Reply | class 1

Ask | Hi there! Is activity at 10 µM for `Cc1ccc([P+](CCCCOc2cc(O)c3c(=O)cc(-c4ccccc4)oc3c2)(c2ccc(C)cc2)c2ccc(C)cc2)cc1` below -90%, do you know?
Reply | class 0
